All figures here come from paper PMC6554663.

experiment: PK analysis in satellite dogs; assay type: in vivo, dog; details: male, beagle, dog, whole blood, po, 1 mg/kg; read-out: T1/2 (converted)
value type: half-life (h)
Write the number in h without appending the unit.

Identify measured half-life corresponding to O=C(Nc1ccc(OC(F)(F)F)cc1)N[C@H]1CC[C@H](Oc2ccc(C(=O)O)cc2)CC1
27
